These entries and their values trace back to patent US4110327A.

# System: Pseudomonas aeruginosa
# ASSAY_OVERVIEW: MIC against clinical isolates
# Format: cell-based
# CONDITIONS: clinical isolate S-3; unit assumed
METRIC: MIC

- COMPOUND: "CCN1CCN(C(=O)NC(C(=O)NC2C(=O)N3C(C(=O)O)=C(COC(C)=O)CSC23)c2ccccc2)C(=O)C1=O (stereo not drawn)"
  METRIC: "MIC"
  MEASURED_RESULT: "50 µg/mL"
- COMPOUND: "CCCCCCCCN1CCN(C(=O)N[C@@H](C(=O)N[C@@H]2C(=O)N3[C@@H]2SC(C)(C)[C@@H]3C(=O)O)c2ccccc2)CC1=O"
  METRIC: "MIC"
  MEASURED_RESULT: "100 µg/mL"
- COMPOUND: "CCCN1CCN(C(=O)N[C@@H](C(=O)N[C@@H]2C(=O)N3[C@@H]2SC(C)(C)[C@@H]3C(=O)O)c2ccccc2)C(=O)C1=O (single isomer, unassigned)"
  METRIC: "MIC"
  MEASURED_RESULT: "12.5 µg/mL"
- COMPOUND: "O=C(Cc1cccs1)N[C@@H]1C(=O)N2C(C(=O)[O-])=C(C[n+]3ccccc3)CS[C@H]12 [Cephalorizine, reference compound]"
  METRIC: "MIC"
  MEASURED_RESULT: "> 200 µg/mL"

Inquiry: Annotate the compound CCCCCCN1CCN(C(=O)N[C@@H](C(=O)N[C@@H]2C(=O)N3[C@@H]2SC(C)(C)[C@@H]3C(=O)O)c2ccccc2)C(=O)C1=O (single isomer, unassigned) with its measured MIC.
Reply text: 50 µg/mL

Inquiry: Query MIC for CC(=O)OCC1=C(C(=O)O)N2C(=O)[C@@H](NC(=O)[C@H](N)c3ccccc3)[C@H]2SC1 [Sodium Cephaloglycin, SodiumCephaloglycin, reference compound]
Reply text: > 200 µg/mL

* * *

# Test system: Proteus vulgaris 3027
# ASSAY_OVERVIEW: MIC against standard strain, plate method
# Type: cell-based
# CONDITIONS: Proteus vulgaris 3027, standard strain; unit assumed
# Protocol: The minimum inhibitory concentrations (MIC) was determined by the plate method disclosed in "Chemotherapy" (Japan), Vol. 16, (1968), pages 98 - 99. The culture medium used was a Heart infusion agar (pH 7.4). The number of the cells per plate used in the inoculum as 10^4 (10^6 cells/ml).
MIC values, listed per item
Output spec: scalar in µg/mL, unitless text.

// worked examples, MIC included
- MOLECULE: "CCOC(=O)N1CCN(C(=O)N[C@@H](C(=O)N[C@@H]2C(=O)N3[C@@H]2SC(C)(C)[C@@H]3C(=O)O)c2ccccc2)C(=O)C1"
  TARGET_ENTITY: "Proteus vulgaris 3027"
  MEASURED_RESULT: 12.5
- MOLECULE: "C=C(C)CN1CCN(C(=O)N[C@@H](C(=O)N[C@@H]2C(=O)N3[C@@H]2SC(C)(C)[C@@H]3C(=O)O)c2ccccc2)CC1=O"
  TARGET_ENTITY: "Proteus vulgaris 3027"
  MEASURED_RESULT: 3.13
- MOLECULE: "CC(C)N1CCN(C(=O)N[C@@H](C(=O)N[C@@H]2C(=O)N3[C@@H]2SC(C)(C)[C@@H]3C(=O)O)c2ccccc2)CC1=O"
  TARGET_ENTITY: "Proteus vulgaris 3027"
  MEASURED_RESULT: 3.13
- MOLECULE: "CCCCCN1CCN(C(=O)N[C@@H](C(=O)N[C@@H]2C(=O)N3[C@@H]2SC(C)(C)[C@@H]3C(=O)O)c2ccccc2)C(=O)C1=O (single isomer, unassigned)"
  TARGET_ENTITY: "Proteus vulgaris 3027"
  MEASURED_RESULT: 0.4
- MOLECULE: "CCCCCCCCN1CCN(C(=O)NC(C(=O)NC2C(=O)N3C2SC(C)(C)C3C(=O)OCCN2CCCCC2)c2ccccc2)C(=O)C1=O (single isomer, unassigned)"
  TARGET_ENTITY: "Proteus vulgaris 3027"
  MEASURED_RESULT: 0.79

API: the following record is the query input.
Inquiry: Return value of MIC for input CN1CCN(C(=O)N[C@@H](C(=O)N[C@@H]2C(=O)N3[C@@H]2SC(C)(C)[C@@H]3C(=O)OC2OC(=O)c3ccccc32)c2ccccc2)C(=O)C1=O (single isomer, unassigned) , no commentary.
Reply text: 1.57

* * *

# Test system: Proteus vulgaris 3027
# ASSAY_OVERVIEW: MIC against standard strain, plate method
# Format: cell-based
# CONDITIONS: Proteus vulgaris 3027, standard strain; unit assumed
METRIC: log10(MIC) (log10 of the value in µg/mL)
Each number you see is log10 of MIC, and the unit inside the log is µg/mL.

- COMPOUND: "CC(=O)OCC1=C(C(=O)O)N2C(=O)C(NC(=O)C(NC(=O)N3CCN(C)C(=O)C3=O)c3ccccc3)C2SC1 (single isomer, unassigned)"
  METRIC: "log10(MIC)"
  MEASURED_RESULT: 0.50
- COMPOUND: "CCN1CCN(C(=O)N[C@@H](C(=O)N[C@@H]2C(=O)N3[C@@H]2SC(C)(C)[C@@H]3C(=O)O)c2ccccc2)CC1=O"
  METRIC: "log10(MIC)"
  MEASURED_RESULT: 0.50
- COMPOUND: "CN1CCN(C(=O)N[C@@H](C(=O)N[C@@H]2C(=O)N3[C@@H]2SC(C)(C)[C@@H]3C(=O)OCOC(=O)C(C)(C)C)c2ccccc2)C(=O)C1=O (single isomer, unassigned)"
  METRIC: "log10(MIC)"
  MEASURED_RESULT: 0.20
- COMPOUND: "CN1CCN(C(=O)NC(C(=O)NC2C(=O)N3C(C(=O)O)=C(CSc4nnnn4C)CSC23)c2ccccc2)C(=O)C1=O (single isomer, unassigned)"
  METRIC: "log10(MIC)"
  MEASURED_RESULT: 0.20
- COMPOUND: "Cc1nnc(SCC2=C(C(=O)O)N3C(=O)[C@@H](NC(=O)Cn4cnnn4)[C@H]3SC2)s1 [Sodium Cephazolin, SodiumCephazolin, reference compound]"
  METRIC: "log10(MIC)"
  MEASURED_RESULT: 0.20
- COMPOUND: "CC(=O)N1CCN(C(=O)N[C@@H](C(=O)N[C@@H]2C(=O)N3[C@@H]2SC(C)(C)[C@@H]3C(=O)O)c2ccccc2)C(=O)C1"
  METRIC: "log10(MIC)"
  MEASURED_RESULT: 0.50

Inquiry: Query log10(MIC) for "CN1CCN(C(=O)N[C@@H](C(=O)N[C@@H]2C(=O)N3[C@@H]2SC(C)(C)[C@@H]3C(=O)O)c2ccccc2)CC1=O"
Reply text: 0.80

Inquiry: Report log10(MIC), nothing else, for this compound: "CC(=O)NC(=O)N1CCN(C(=O)N[C@@H](C(=O)N[C@@H]2C(=O)N3[C@@H]2SC(C)(C)[C@@H]3C(=O)O)c2ccccc2)C(=O)C1"
Reply text: 0.80

Inquiry: Return log10(MIC) (reported value) for this compound: CCCCCCN1CCN(C(=O)N[C@@H](C(=O)N[C@@H]2C(=O)N3[C@@H]2SC(C)(C)[C@@H]3C(=O)O)c2ccccc2)C(=O)C1=O (single isomer, unassigned)
Reply text: -0.40

Inquiry: Tell me its log10(MIC) given "CC1(C)S[C@@H]2[C@H](NC(=O)[C@H](NC(=O)N3CC(=O)N(Cc4ccccc4)CC3=O)c3ccccc3)C(=O)N2[C@H]1C(=O)O" as the entry.
Reply text: 1.40

* * *

# Tested on: Pseudomonas aeruginosa
# ASSAY_OVERVIEW: MIC against clinical isolates
# Assay type: cell-based
# CONDITIONS: clinical isolate GN 2987; unit assumed
The entries below are paired with their reported MIC.
Return type: number; implicit unit µg/mL.

Here are 5 compounds together with their reported answers.
- COMPOUND: "CCCCCCCCN1CCN(C(=O)N[C@@H](C(=O)N[C@@H]2C(=O)N3[C@@H]2SC(C)(C)[C@@H]3C(=O)O)c2ccccc2)CC1=O"
  METRIC: "MIC"
  MEASURED_RESULT: 12.5
- COMPOUND: "CN1CCN(C(=O)N[C@@H](C(=O)N[C@@H]2C(=O)N3C(C(=O)[O-])=C(C[n+]4ccccc4)CS[C@H]23)c2ccccc2)C(=O)C1=O"
  METRIC: "MIC"
  MEASURED_RESULT: 12.5
- COMPOUND: "CN1CCN(C(=O)N[C@@H](C(=O)N[C@@H]2C(=O)N3[C@@H]2SC(C)(C)[C@@H]3C(=O)O)c2ccccc2)C(=O)C1=O (single isomer, unassigned)"
  METRIC: "MIC"
  MEASURED_RESULT: 25
- COMPOUND: "CC1(C)S[C@@H]2[C@H](NC(=O)C(c3ccccc3)S(=O)(=O)O)C(=O)N2[C@H]1C(=O)O (some centres unmarked) [Sodium Sulbenicillin, SodiumSulbenicillin, reference compound]"
  METRIC: "MIC"
  MEASURED_RESULT: 25
- COMPOUND: "CCCCCCN1CCN(C(=O)N[C@@H](C(=O)N[C@@H]2C(=O)N3[C@@H]2SC(C)(C)[C@@H]3C(=O)O)c2ccccc2)C(=O)C1"
  METRIC: "MIC"
  MEASURED_RESULT: 12.5

Inquiry: Respond only with MIC recorded for CCCCCN1CCN(C(=O)N[C@@H](C(=O)N[C@@H]2C(=O)N3[C@@H]2SC(C)(C)[C@@H]3C(=O)O)c2ccccc2)C(=O)C1=O (single isomer, unassigned)
Reply text: 12.5

Inquiry: Hello, please tell me recorded MIC for this one: "CCN1CCN(C(=O)N[C@@H](C(=O)N[C@@H]2C(=O)N3[C@@H]2SC(C)(C)[C@@H]3C(=O)O)c2ccccc2)CC1=O"
Reply text: 12.5

Inquiry: Give a short answer stating reported MIC for CCCN1CCN(C(=O)N[C@@H](C(=O)N[C@@H]2C(=O)N3[C@@H]2SC(C)(C)[C@@H]3C(=O)O)c2ccccc2)C(=O)C1=O (single isomer, unassigned) .
Reply text: 6.25
